Experiment: Drug level in Crl:CD(SD) rat CSF at 10 mg/kg, po administered as single dose via gavage measured after 4 hrs
Format: ADME, organism-based, Cerebrospinal fluid
Conditions: read-out: Drug uptake
recorded metric: concentration at 4 h (nM)
Numbers only; they are read as nM.

*Q* Reported concentration at 4 h, molecule COc1cnc(C(=O)Nc2ccc(F)c([C@@]3(C)N=C(N)O[C@@H]4C[C@@H]43)c2)cn1 : ____
*A* 210

----------
Test: Apparent intrinsic clearance in rat liver microsomes at 1 uM
Assay type: ADME, microsome
Conditions: read-out: CLH(app)
compounds and their reported microsomal CLint at 1 µM
Numbers only; they are read as µL/min/mg.

COc1cnc(C(=O)Nc2ccc(F)c([C@]3(C)CCOC(N)=N3)c2)cn1
52

As a next step, examine the compound that follows.
*Q* Reported microsomal CLint at 1 µM, compound COc1cnc(C(=O)Nc2ccc(F)c([C@@]3(C)N=C(N)O[C@@H]4C[C@@H]43)c2)cn1 : ____
*A* 30

----------
molecules and their reported microsomal CLint at 1 µM
Test: Apparent intrinsic clearance in human liver microsomes at 1 uM
Assay type: ADME, microsome
Settings: read-out: CLH(app)
Numbers only; they are read as µL/min/mg.

COc1cnc(C(=O)Nc2ccc(F)c([C@@]3(C)N=C(N)O[C@@H]4C[C@@H]43)c2)cn1
105

As a next step, examine the molecule that follows.
*Q* Reported microsomal CLint at 1 µM, molecule COc1cnc(C(=O)Nc2ccc(F)c([C@@]3(C)N=C(N)O[C@H]4C[C@H]43)c2)cn1 : ____
*A* 162

----------
Assay: Drug level in Crl:CD(SD) rat brain at 10 mg/kg, po administered as single dose via gavage measured after 4 hrs
Format: ADME, organism-based
Conditions: read-out: Drug uptake
recorded metric: concentration at 4 h (nM)
Numbers only; they are read as nM.

*Q* Reported concentration at 4 h, molecule COc1cnc(C(=O)Nc2ccc(F)c([C@@]3(C)N=C(N)O[C@@H]4C[C@@H]43)c2)cn1 : ____
*A* 1100

----------
Assay: Dissociation constant, pKa of the compound by UV spectrophotometric method
Format: physicochemical
compounds and their reported pKa

Solved cases below.
COc1cnc(C(=O)Nc2ccc(F)c([C@@]3(C)N=C(N)O[C@H]4C[C@H]43)c2)cn1
8.8
COc1cnc(C(=O)Nc2ccc(F)c([C@]3(C)CCOC(N)=N3)c2)cn1
9.8

As a next step, examine the compound that follows.
*Q* Reported pKa, compound COc1cnc(C(=O)Nc2ccc(F)c([C@@]3(C)N=C(N)O[C@@H]4C[C@@H]43)c2)cn1 : ____
*A* 9.3

----------
Experiment: Apparent permeability in pig LLC-PK1 cells
Type: ADME, cell-based, Sus scrofa
recorded metric: Papp
I'd appreciate it if you wrote the number followed by its unit.

Solved cases below.
COc1cnc(C(=O)Nc2ccc(F)c([C@@]3(C)N=C(N)O[C@@H]4C[C@@H]43)c2)cn1
1.8 ×10⁻⁶ cm/s
COc1cnc(C(=O)Nc2ccc(F)c([C@]3(C)CCOC(N)=N3)c2)cn1
3.4 ×10⁻⁶ cm/s

*Q* Reported Papp, compound COc1cnc(C(=O)Nc2ccc(F)c([C@@]3(C)N=C(N)O[C@H]4C[C@H]43)c2)cn1 : ____
*A* 2.5 ×10⁻⁶ cm/s
